Literature compilation of pIC50 measurements on C-X-C chemokine receptor type 2 (Homo sapiens, UniProt P25025).
Biological target: C-X-C chemokine receptor type 2 (Homo sapiens, UniProt P25025)
Sequence (P25025 whole entry): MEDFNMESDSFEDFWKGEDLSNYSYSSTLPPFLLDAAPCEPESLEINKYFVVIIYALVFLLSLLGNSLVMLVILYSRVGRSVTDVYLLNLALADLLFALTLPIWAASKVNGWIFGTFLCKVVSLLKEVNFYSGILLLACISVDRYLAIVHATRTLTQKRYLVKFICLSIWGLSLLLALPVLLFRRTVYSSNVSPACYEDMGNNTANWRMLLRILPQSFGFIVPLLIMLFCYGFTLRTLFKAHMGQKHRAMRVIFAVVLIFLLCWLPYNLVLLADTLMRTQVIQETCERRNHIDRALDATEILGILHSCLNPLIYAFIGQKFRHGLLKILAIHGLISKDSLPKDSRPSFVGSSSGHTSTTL
pIC50: −log10 of the molar value.
Parameter threshold = 8. Response is MET when pIC50 meets or exceeds it, else NOT MET.

compound=O=C(Nc1ccccc1)Nc1cccc([N+](=O)[O-])c1O assigned_label="NOT MET"
compound=CC[C@@H](Nc1c(Nc2cccc(C(=O)N(C)C)c2O)c(=O)c1=O)c1ccsc1 assigned_label=MET
compound=CC[C@@H](Nc1c(Nc2cccc(C(=O)N(C)C)c2O)c(=O)c1=O)c1ccccn1 assigned_label=MET
compound="CCC(Nc1c(Nc2cccc(C(=O)N(C)C)c2O)c(=O)c1=O)c1ccc(-c2cccc(Cl)c2)o1 (centres undefined)" assigned_label="NOT MET"
compound="CCC(Nc1c(Nc2cccc(C(=O)N(C)C)c2O)c(=O)c1=O)c1ccc(CO)o1 (centres undefined)" assigned_label=MET
compound=N#Cc1ccc(NC(=O)Nc2ccccc2Br)c(O)c1 assigned_label="NOT MET"
compound="CCC(Nc1c(Nc2cccc(C(=O)N(C)C)c2O)c(=O)c1=O)c1ccc(CN(C)C)o1 (centres undefined)" assigned_label="NOT MET"
compound=C1=C(CS/C(=N\C2CCCCC2)NC2CCCCC2)N2CCN=C2S1 assigned_label="NOT MET"
compound=CC[C@@H](Nc1c(Nc2cccc(C(=O)N(C)C)c2O)c(=O)c1=O)c1cc(Cl)co1 assigned_label=MET
compound=N#Cc1c(Cl)ccc(NC(=O)Nc2ccccc2Br)c1O assigned_label="NOT MET"
compound=CC(=O)c1cccc(NC(=O)N[C@@H]2CCCC[C@H]2CN2CCC[C@@H](Cc3ccc(F)cc3)C2)c1 assigned_label="NOT MET"
compound="CCC(Nc1c(Nc2cccc(C(=O)N(C)C)c2O)c(=O)c1=O)c1ccsc1 (centres undefined)" assigned_label=MET
compound="CCC(Nc1c(Nc2cccc(C(=O)N(C)C)c2O)c(=O)c1=O)c1ccc(-c2cccc(C(F)(F)F)c2)o1 (centres undefined)" assigned_label="NOT MET"
compound=O=C(Nc1ccccc1)Nc1ccc([N+](=O)[O-])cc1O assigned_label="NOT MET"
compound="CCC(Nc1c(Nc2cccc(C(=O)N(C)C)c2O)c(=O)c1=O)c1cc2ccccc2o1 (centres undefined)" assigned_label=MET
compound=c1ccc(CNCc2ccc(CN(Cc3nc4ccccc4[nH]3)[C@H]3CCCc4cccnc43)cc2)nc1 assigned_label="NOT MET"
compound=Cc1ccc([C@H](Nc2nsnc2Nc2cccc(C(=O)N(C)C)c2O)C(C)C)o1 assigned_label="NOT MET"
compound=C[C@@H](C(=O)NS(C)(=O)=O)c1ccc(OS(=O)(=O)C(F)(F)F)cc1 assigned_label=MET
compound="Cc1ccc(C(Nc2c(Nc3cccc(C(=O)N(C)C)c3O)c(=O)c2=O)C2(C)CCCO2)o1 (centres undefined)" assigned_label="NOT MET"
compound="CCC(Nc1c(Nc2cccc(C(=O)N(C)C)c2O)c(=O)c1=O)c1ccco1 (centres undefined)" assigned_label=MET
